The origin of these recorded values is patent US10617679B2.

- System: rat chronic sciatic nerve compression neuralgia model
- assay_name: Analgesic effects of intragastric administration in a rat chronic sciatic nerve compression neuralgia model
- Type: in vivo, SD rats
- particulars: 20 mg/kg intragastric; pain threshold 1 hour after administration
- Method: SD rats (male, weight 160-180 g) were anesthetized using sodium pentobarbital (40 mg/kg), of which the sciatic nerves were separated in the middle segment of the right hind limbs. […] The weight of the filament was recorded and set to be the threshold (in g). Meanwhile, the number of foot-lifting response to the 10 stimulations of the fiber filaments of different weights was recorded, and the highest threshold was set at 26 g. […]
Response field label: string, one of rule met (Analgesic percent strictly below 60%) or rule not met.

// known answers, use as guide
molecule	assigned_label
[2H]C([2H])([2H])Oc1cc2c(cc1OC)CCN1Cc3c(ccc(OC)c3OC([2H])([2H])[2H])C[C@@H]21 [Formula I5]	rule met
COc1cc2c(cc1OC)[C@@H]1Cc3ccc(OC)c(OC)c3CN1CC2 [THP, L-tetrahydropalmatine, reference compound]	rule met
[2H]C([2H])([2H])Oc1cc2c(cc1OC)CCN1Cc3c(ccc(OC)c3OC)C[C@@H]21 [Formula I3]	rule met
[2H]C([2H])([2H])Oc1cc2c(cc1OC([2H])([2H])[2H])[C@@H]1Cc3ccc(OC([2H])([2H])[2H])c(OC([2H])([2H])[2H])c3CN1CC2 [Formula I7]	rule not met

Continue with the molecule presented below.
[ask] Does [2H]C([2H])([2H])Oc1cc2c(cc1OC)CCN1Cc3c(ccc(OC([2H])([2H])[2H])c3OC)C[C@@H]21 [Formula I6] have Analgesic percent strictly under 60%?
[reply] rule not met

====

Readings of Heart rate for the listed compounds
- Test system: heart rate in rats
- assay_name: Effects on heart rate in rats
- Format: in vivo, SD rats
- particulars: 40 mg/kg intragastric; time point 60
Give your result in BTM as a bare value.

compound	Heart rate (BTM)
[2H]C([2H])([2H])Oc1cc2c(cc1OC([2H])([2H])[2H])[C@@H]1Cc3ccc(OC([2H])([2H])[2H])c(OC([2H])([2H])[2H])c3CN1CC2 [Formula I7]	332.6
[2H]C([2H])([2H])Oc1ccc2c(c1OC)CN1CCc3cc(OC)c(OC)cc3[C@@H]1C2 [Formula I2]	319.7

[ask] Find the measured Heart rate of COc1cc2c(cc1OC)[C@@H]1Cc3ccc(OC)c(OC)c3CN1CC2 [THP, L-tetrahydropalmatine, reference compound] and report it.
[reply] 329.0

[ask] Find the measured Heart rate of [2H]C([2H])([2H])Oc1cc2c(cc1OC)CCN1Cc3c(ccc(OC([2H])([2H])[2H])c3OC)C[C@@H]21 [Formula I6] and report it.
[reply] 362.8

====

- System: heart rate in rats
- assay_name: Effects on heart rate in rats
- Assay type: in vivo, SD rats
- particulars: 40 mg/kg intragastric; time point 180
- Experimental: SD rats (male, weight 160-180 g) were fasted for 12 hours before administration but had free access to drinking water. The rats were randomly divided into groups. They were anesthetized with an intraperitoneal injection of 50-60 mg/kg dose of sodium pentobarbital. Each rat was fixed on the back on the surgical table. The skin was cut from the center of the neck, and an incision of about 2.5 cm was made. […] Heart rate and blood pressure were measured at different time points after administration.
parameter_measured: Heart rate (BTM)
Give your result in BTM as a bare value.

Please review the entries below; each comes with its answer.
> print(dat)
                                   compound  parameter.measured  endpoint.result
1  COc1cc2c(cc1OC)[C@@H]1Cc3ccc(OC)c(OC)c3CN1CC2 [THP, L-tetrahydropalmatine, reference compound]          Heart rate            400.0
2  [2H]C([2H])([2H])Oc1cc2c(cc1OC)CCN1Cc3c(ccc(OC([2H])([2H])[2H])c3OC)C[C@@H]21          Heart rate            380.8
3  [2H]C([2H])([2H])Oc1cc2c(cc1OC([2H])([2H])[2H])[C@@H]1Cc3ccc(OC([2H])([2H])[2H])c(OC([2H])([2H])[2H])c3CN1CC2          Heart rate            362.0

Here's the next entry for you.
[ask] Give Heart rate for `[2H]C([2H])([2H])Oc1ccc2c(c1OC)CN1CCc3cc(OC)c(OC)cc3[C@@H]1C2` tested on heart rate in rats.
[reply] 407.0

====

Readings of Heart rate for the listed compounds
- System: heart rate in rats
- assay_name: Effects on heart rate in rats
- Type: in vivo, SD rats
- particulars: 40 mg/kg intragastric; time point 30
Give your result in BTM as a bare value.

> print(dat)
                                   compound  parameter.measured  measure.unit  endpoint.result
1  [2H]C([2H])([2H])Oc1ccc2c(c1OC)CN1CCc3cc(OC)c(OC)cc3[C@@H]1C2          Heart rate           BTM            390.7
2  [2H]C([2H])([2H])Oc1cc2c(cc1OC)CCN1Cc3c(ccc(OC([2H])([2H])[2H])c3OC)C[C@@H]21          Heart rate           BTM            375.8
3  [2H]C([2H])([2H])Oc1cc2c(cc1OC([2H])([2H])[2H])[C@@H]1Cc3ccc(OC([2H])([2H])[2H])c(OC([2H])([2H])[2H])c3CN1CC2          Heart rate           BTM            366.8

Here's the next entry for you.
[ask] Find the measured Heart rate of COc1cc2c(cc1OC)[C@@H]1Cc3ccc(OC)c(OC)c3CN1CC2 [THP, L-tetrahydropalmatine, reference compound] and report it.
[reply] 372.1

====

- Test system: heart rate in rats
- assay_name: Effects on heart rate in rats
- Type: in vivo, SD rats
- particulars: 40 mg/kg intragastric; time point 0
parameter_measured: Heart rate (BTM)
Give your result in BTM as a bare value.

Please review the entries below; each comes with its answer.
> print(dat)
                                   compound  parameter.measured  endpoint.result
1  [2H]C([2H])([2H])Oc1cc2c(cc1OC([2H])([2H])[2H])[C@@H]1Cc3ccc(OC([2H])([2H])[2H])c(OC([2H])([2H])[2H])c3CN1CC2          Heart rate            407.9
2  [2H]C([2H])([2H])Oc1cc2c(cc1OC)CCN1Cc3c(ccc(OC([2H])([2H])[2H])c3OC)C[C@@H]21          Heart rate            414.1
3  [2H]C([2H])([2H])Oc1ccc2c(c1OC)CN1CCc3cc(OC)c(OC)cc3[C@@H]1C2          Heart rate            409.2

[ask] Find the measured Heart rate of COc1cc2c(cc1OC)[C@@H]1Cc3ccc(OC)c(OC)c3CN1CC2 [THP, L-tetrahydropalmatine, reference compound] and report it.
[reply] 391.8

====

Readings of Blood pressure for the listed molecules
- Test system: blood pressure in rats
- assay_name: Effects on blood pressure in rats
- Type: in vivo, SD rats
- particulars: 40 mg/kg intragastric; time point 0
Give your result in mmHg as a bare value.

> print(dat)
                                   molecule  endpoint.result
1  [2H]C([2H])([2H])Oc1ccc2c(c1OC)CN1CCc3cc(OC)c(OC)cc3[C@@H]1C2            114.6
2  COc1cc2c(cc1OC)[C@@H]1Cc3ccc(OC)c(OC)c3CN1CC2 [THP, L-tetrahydropalmatine, reference compound]            114.2
3  [2H]C([2H])([2H])Oc1cc2c(cc1OC)CCN1Cc3c(ccc(OC([2H])([2H])[2H])c3OC)C[C@@H]21            111.0

Here's the next entry for you.
[ask] Find the measured Blood pressure of `[2H]C([2H])([2H])Oc1cc2c(cc1OC([2H])([2H])[2H])[C@@H]1Cc3ccc(OC([2H])([2H])[2H])c(OC([2H])([2H])[2H])c3CN1CC2` and report it.
[reply] 113.0

====

- System: blood pressure in rats
- assay_name: Effects on blood pressure in rats
- Assay type: in vivo, SD rats
- particulars: 40 mg/kg intragastric; time point 180
parameter_measured: Blood pressure
Give your result as the value with the unit written after it.

[ask] Find the measured Blood pressure of `[2H]C([2H])([2H])Oc1cc2c(cc1OC)CCN1Cc3c(ccc(OC([2H])([2H])[2H])c3OC)C[C@@H]21` and report it.
[reply] 109.5 ± 14.1 mmHg

[ask] Find the measured Blood pressure of COc1cc2c(cc1OC)[C@@H]1Cc3ccc(OC)c(OC)c3CN1CC2 [THP, L-tetrahydropalmatine, reference compound] and report it.
[reply] 97.3 ± 14.5 mmHg

[ask] Find the measured Blood pressure of `[2H]C([2H])([2H])Oc1ccc2c(c1OC)CN1CCc3cc(OC)c(OC)cc3[C@@H]1C2` and report it.
[reply] 100.0 ± 17.8 mmHg

[ask] Find the measured Blood pressure of `[2H]C([2H])([2H])Oc1cc2c(cc1OC([2H])([2H])[2H])[C@@H]1Cc3ccc(OC([2H])([2H])[2H])c(OC([2H])([2H])[2H])c3CN1CC2` and report it.
[reply] 101.8 ± 8.1 mmHg
